- test_description: chemical genetic growth profiling, strain panel (AID 1159580);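 also: tested at 20 µM; growth read once vehicle control cultures reached saturation at 30 °C; 1 = growth at the plate median or of vehicle wells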
- recorded_conditions: S. cerevisiae deletion strains, growth OD, locus YDL101C, strain DUN1, stronger effect = lower value
Out of some 5,500 compounds screened, about 2,000 (36%) were called active. About 18% were inconclusive and are not listed. The list shows a part of the results.
endpoint_label: normalized growth
Just the number, please, no unit after it.

Query block: Sample CCCc1nc2c(C)cc(-c3nc4ccccc4n3C)cc2n1Cc1ccc(-c2ccccc2C(=O)O)cc1 — what was its normalized growth?
Result block: 0.999

Query block: # lookup: normalized growth of CCC(=O)Nc1cc(OC)cc(OC)c1
Result block: 1.01

Query block: Form field: reported normalized growth of CN[C@@H]1[C@@H](O[C@H]2O[C@H](CO)[C@@H](N)[C@H](O)[C@H]2O)O[C@H]2C[C@@H](N)[C@H](O[C@H]3[C@H](O)[C@@H](O)[C@H](N)C[C@@H]3N)O[C@@H]2[C@@H]1O
Result block: 1

Query block: What does the data say about its normalized growth? Entry: Cc1cc(=O)n(-c2ccccc2)n1C
Result block: 0.999

Query block: Look up normalized growth for this compound: COc1cc(O)cc(OC)c1OC
Result block: 1.02

====

- test_description: chemical genetic growth profiling, strain panel (AID 1159580)
- recorded_conditions: S. cerevisiae deletion strains, growth OD, locus YNL307C, strain MCK1 (second series)
Hit rate of the full screen: of about 5,500 compounds, about 2,000 (36%) were called active. Not shown: some 18% with an inconclusive outcome. No stated cut-off is given here; in the data, active means normalized growth mostly below about 0.91 (no sharp cut-off); inconclusive means no clear call, values can overlap the other calls; inactive means mostly above about 0.92. This is one part of the list.
Give your call using only these classes: TRUE = active, FALSE = inactive

Field: example entries. Status: answers known.
CSc1nnc(COc2ccc(C)c3c2CCC3)n1-c1ccccc1    FALSE
OC(CSc1ccccc1)CN1CCN(c2nc(-c3ccccc3)ns2)CC1 (stereo unspecified)    FALSE
S=C(N/N=C\c1cccs1)NC1CC2CCC1C2 (stereo unspecified)    FALSE

Query block: Outcome logged for O=c1c(-c2ccccc2)c(O)c2cccc3c4c(n1c23)CCCC4 in this assay:
Result block: TRUE

Query block: Hey, what did the test say about CC(=O)c1ccccc1C(=O)c1ccc(C(C)(C)C)cc1 ?
Result block: FALSE

Query block: Write down the call the test reported for this compound. Item: O=C(Nc1cc2c(s1)-c1cc(Cl)ccc1SC2)Oc1ccccc1
Result block: FALSE

====

- test_description: chemical genetic growth profiling, strain panel (AID 1159580)
- recorded_conditions: S. cerevisiae deletion strains, growth OD, locus YEL061C, strain CIN8 (second series)
Out of some 5,500 compounds screened, about 2,000 (36%) were called active. Inconclusive results (about 18%) are left out. No stated cut-off is given here; in the data, active means normalized growth mostly below about 0.91 (no sharp cut-off); inconclusive means no clear call, values can overlap the other calls; inactive means mostly above about 0.92. The list shows a part of the results.
// one of active, inactive, no free text

Query block: What did the test return for O=C(O)c1cc(=O)c2cccc(O)c2[nH]1 ?
Result block: inactive

====

- test_description: chemical genetic growth profiling, strain panel (AID 1159580)
- recorded_conditions: S. cerevisiae deletion strains, growth OD, locus YOR083W, strain WHI5 (second series)
The campaign covered roughly 5,500 compounds. About 2,000 (36%) were called active. Inconclusive results (about 18%) are left out. Rule as the data show it: active = normalized growth mostly below about 0.91 (no sharp cut-off); inconclusive = no clear call, values can overlap the other calls; inactive = mostly above about 0.92. The list shows a part of the results.
Outcome (select one): True (active), False (inactive)

Look over these answered cases.
Cn1cc(C(F)(F)F)nc1-c1ccc(OCC(O)CNCCOc2ccc(O)c(C(N)=O)c2)cc1 (stereo unspecified)    False
CN1C(=O)CCS(=O)(=O)C1c1ccc(Cl)cc1 (stereo unspecified)    False
CN1CCN(CCCN2c3ccccc3Sc3ccc(C(F)(F)F)cc32)CC1    True
O=C(O)CC1CCCc2ccccc2C1O (stereo unspecified)    False

Query block: What call does the record list for CC(=O)Oc1ccccc1C(=O)O ?
Result block: False

Query block: Field: outcome | Entry: OCCN1CCN(CCCN2c3ccccc3Sc3ccc(C(F)(F)F)cc32)CC1
Result block: False

Query block: // return assay outcome for CN1CCN(CC(=O)N2c3ccccc3C(=O)Nc3cccnc32)CC1
Result block: False

Query block: Recorded test outcome, item CNC(=O)[C@H]1O[C@@H](n2cnc3c(NCc4ccc(N)cc4)ncnc32)C(O)[C@H]1O (stereo partly specified)
Result block: False

Query block: Hi, sorry to bother you, what did the test record for NC(Cc1cc(O)c(O)cc1O)C(=O)O (stereo unspecified) ?
Result block: False

Query block: Dear colleague, could you share the recorded outcome for Cc1cc(C(C)(C)C)c(O)c(C)c1CC1=NCCN1 when you have a moment?
Result block: False

Query block: Answer briefly: the call reported for COc1cccc(C(=O)NCCN2CCN(c3ccc(Cl)cc3)CC2)c1 in this assay.
Result block: False

====

normalized growth values for the compounds below.
- test_description: chemical genetic growth profiling, strain panel (AID 1159580);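 also: tested at 20 µM; growth read once vehicle control cultures reached saturation at 30 °C; 1 = growth at the plate median or of vehicle wells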
- recorded_conditions: S. cerevisiae deletion strains, growth OD, locus YLR102C, strain apc9, stronger effect = lower value
The campaign covered roughly 5,500 compounds. About 2,000 (36%) were called active. Not shown: some 18% with an inconclusive outcome. The list shows a part of the results.
Answer with a bare number; do not write a unit.

Query block: Which normalized growth reading was recorded for the compound O=C(OC[C@H]1O[C@H](OC(=O)c2cc(O)c(O)c(OC(=O)c3cc(O)c(O)c(O)c3)c2)[C@H](OC(=O)c2cc(O)c(O)c(OC(=O)c3cc(O)c(O)c(O)c3)c2)[C@@H](OC(=O)c2cc(O)c(O)c(OC(=O)c3cc(O)c(O)c(O)c3)c2)[C@@H]1OC(=O)c1cc(O)c(O)c(OC(=O)c2cc(O)c(O)c(O)c2)c1)c1cc(O)c(O)c(OC(=O)c2cc(O)c(O)c(O)c2)c1 ?
Result block: 0.0965

Query block: Quick one: normalized growth for CC1=CC(=O)C2=C(C)CC(O)C3C(C)C(=O)OC3C12 (configuration not stated) ?
Result block: 1.02

====

- test_description: chemical genetic growth profiling, strain panel (AID 1159580);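 also: tested at 20 µM; growth read once vehicle control cultures reached saturation at 30 °C; 1 = growth at the plate median or of vehicle wells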
- recorded_conditions: S. cerevisiae deletion strains, growth OD, locus YJL128C, strain PBS2
Screen size: about 5,500 compounds; about 2,000 (36%) were called active. Roughly 18% stayed inconclusive and do not appear here. Cut-off read from the data, not from the text of the source: active = normalized growth mostly below about 0.91 (no sharp cut-off); inconclusive = no clear call, values can overlap the other calls; inactive = mostly above about 0.92. The list shows a part of the results.
Respond only with the outcome that fits, drawn from y for active, n for inactive

// below: answered compounds
CS/C(Nc1cccc(C(F)(F)F)c1)=C(/C#N)S(=O)(=O)c1ccc(Cl)cc1    n
Cc1ccc(OCc2n[nH]c(=S)n2Cc2ccccc2)c2c1CCC2    n
CC(C)(C)C(=O)c1sc2sc(C(=O)C(C)(C)C)c(N)c2c1N    n
FC(F)(F)c1cc(-c2ccc(Cl)cc2)n[nH]1    n

Query block: Call for entry Cn1nc(-c2ccccc2)c(O)c(N=Nc2ccccc2)c1=O :
Result block: n

Query block: Field: outcome | Entry: O=c1c(-c2ccccc2)c(O)c2cccc3c4ccccc4n1c23
Result block: y

Query block: Any idea what this test logged for O=C(Nc1cc2c(s1)-c1cc(Cl)ccc1SC2)Oc1ccccc1 ?
Result block: n

Query block: Identify the outcome logged in this assay for the compound shown: OC(CSc1ccccc1)CN1CCN(c2nc(-c3ccccc3)ns2)CC1 (stereo unspecified)
Result block: n

Query block: Record request — test call for O=C(c1cc2c(s1)-c1ccccc1CC2)N1CCN(Cc2ccccc2)CC1
Result block: n

Query block: Called result for COc1ccc(C2CC(c3ccc(C)cc3C)=NN2C(C)=O)cc1 (stereo unspecified)
Result block: n

Query block: Per the records of this test, what outcome belongs to COc1cc(N2C(=O)C=CC2=O)cc(OC)c1OC ?
Result block: y

Query block: Recorded test call requested for O=C(Nc1cccnc1)c1cc2c(s1)-c1ccccc1CC2
Result block: n

Query block: Please share the test call associated with CC(C)(C)c1ccc(C(=O)NNC(=S)Nc2ccc(Cl)cc2)cc1 .
Result block: n

Query block: Entry CC(=O)c1ccccc1C(=O)c1ccc(C(C)(C)C)cc1 : call = ?
Result block: n

Query block: State the result this test recorded for CCOC(=O)c1cnc2c(c(C)nn2C)c1Sc1nnc(SC)s1 .
Result block: n

Query block: Status in this test for Clc1ccc(N/N=C\c2sccc2Oc2ccccc2)cc1 ?
Result block: n

====

- test_description: chemical genetic growth profiling, strain panel (AID 1159580);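 also: tested at 20 µM; growth read once vehicle control cultures reached saturation at 30 °C; 1 = growth at the plate median or of vehicle wells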
- recorded_conditions: S. cerevisiae deletion strains, growth OD, locus YDR150W, strain NUM1, stronger effect = lower value
The whole screen tested about 5,500 compounds, of which about 2,000 (36%) were called active. Not shown: some 18% with an inconclusive outcome. Some of the results follow.
endpoint_label: normalized growth

Here's what some known entries look like.
CCOC(=O)c1cnc2nc(SC)nn2c1N    0.968 (inactive)
CC(=O)OCC1=C(C(=O)O)N2C(=O)[C@@H](NC(=O)CCCC(N)C(=O)O)C2SC1 (stereo partly specified)    1.02 (inactive)
N#Cc1ccc(Oc2ccc(Cl)cc2)nc1    1.01 (inactive)

Query block: Given the molecule CC(=O)Nc1cc2ccccc2oc1=O , what is its reported normalized growth?
Result block: 0.986 (inactive)

Query block: Entry under review: COc1cc(/C=N\NC(=S)NC2CC3CCC2C3)cc(OC)c1OC (stereo unspecified) . Reported normalized growth?
Result block: 0.998 (inactive)
